- TEST SUMMARY: chemical genetic growth profiling, strain panel (AID 1159580);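 further: tested at 20 µM; growth read once vehicle control cultures reached saturation at 30 °C; 1 = growth at the plate median or of vehicle wells; lower values mean less growth of the strain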
- CONDITIONS USED: S. cerevisiae deletion strains, growth OD, locus YLR102C, strain apc9, active compounds read low
The campaign covered roughly 5,500 compounds. About 2,000 (36%) were called active. Another 18% or so got no clear call; they are omitted. The list shows a part of the results.

COMPOUND	normalized growth
Nc1ccc(S(=O)(=O)Nc2ncccn2)cc1	0.993
C[N+]1(C)C[C@H](O)[C@H](C(=O)[O-])C1	0.995
O=C(Oc1ccccc1C(=O)O)c1ccccc1O	0.993
COC(=O)NC(=S)Nc1ccccc1NC(=S)NC(=O)OC	1.01
NC(=O)c1ccccc1O	1.01
C[C@@H]1CCC2[C@](C)(CO)[C@@H](O)CC[C@]2(C)[C@@]12CC[C@@](CO)(CCO)O2 (some centres not stated)	0.977
CC(=O)[C@@]1(O)CCC2C3C=C(Cl)C4=CC(=O)[C@@H]5CC5[C@]4(C)C3CC[C@@]21C (some centres not stated)	1.01
CC1(C)S[C@@H]2[C@H](NC(=O)[C@@H](N)c3ccc(O)cc3)C(=O)N2[C@H]1C(=O)O	0.997
Cc1cc(N)c2ccccc2[n+]1CCCCCCCCCC[n+]1c(C)cc(N)c2ccccc21	0.0687
CO[C@@H]1C[C@H](O[C@H]2CC[C@]3(C)C4CC[C@]5(C)[C@@H](C6=CC(=O)OC6)CC[C@]5(O)[C@@H]4CC[C@]3(O)C2)O[C@H](C)[C@@H]1O (some centres not stated)	1.03
O=C(O)c1ccccc1O	1.01
CC1=CC(=O)C(C(C)C)=CC1=O	0.95
Cc1ccc(C(C)C)c(O)c1C(=O)O	0.918
Cc1c(OCC(F)(F)F)ccnc1CS(=O)c1nc2ccccc2[nH]1 (configuration not stated)	1
Cc1ccccc1N1C(=O)c2cc(S(N)(=O)=O)c(Cl)cc2NC1C (configuration not stated)	0.989
COc1cc(C(=O)O)cc(OC)c1OC	1.02
CC1Cc2ccccc2N1NC(=O)c1ccc(Cl)c(S(N)(=O)=O)c1 (configuration not stated)	0.989
CNC[C@H](O)c1cccc(O)c1	1.01
COC1=CC(C)[C@@H]2C[C@H]3OC(=O)C[C@H]4C(C)=C(OC)C(=O)C([C@@]34C)[C@@]2(C)C1=O (some centres not stated)	1.02
COc1cc(C(=O)N2CCOCC2)cc(OC)c1OC	0.102
NS(=O)(=O)c1cc2c(cc1C(F)(F)F)NC(Cc1ccccc1)NS2(=O)=O (configuration not stated)	1.01
COc1c(O)cc2c(c1O)[C@H]1O[C@H](CO)[C@@H](O)[C@H](O)[C@@H]1OC2=O	1
